Target: T1, granulocyte-colony stimulating factor receptor (G-CSFR), purified / soluble receptor used in the binding … (UniProt Q99062 25-627, limits assumed)
T1 construct: also called G-CSF receptor; soluble G-CSFR harvest
T1 sequence (looked up): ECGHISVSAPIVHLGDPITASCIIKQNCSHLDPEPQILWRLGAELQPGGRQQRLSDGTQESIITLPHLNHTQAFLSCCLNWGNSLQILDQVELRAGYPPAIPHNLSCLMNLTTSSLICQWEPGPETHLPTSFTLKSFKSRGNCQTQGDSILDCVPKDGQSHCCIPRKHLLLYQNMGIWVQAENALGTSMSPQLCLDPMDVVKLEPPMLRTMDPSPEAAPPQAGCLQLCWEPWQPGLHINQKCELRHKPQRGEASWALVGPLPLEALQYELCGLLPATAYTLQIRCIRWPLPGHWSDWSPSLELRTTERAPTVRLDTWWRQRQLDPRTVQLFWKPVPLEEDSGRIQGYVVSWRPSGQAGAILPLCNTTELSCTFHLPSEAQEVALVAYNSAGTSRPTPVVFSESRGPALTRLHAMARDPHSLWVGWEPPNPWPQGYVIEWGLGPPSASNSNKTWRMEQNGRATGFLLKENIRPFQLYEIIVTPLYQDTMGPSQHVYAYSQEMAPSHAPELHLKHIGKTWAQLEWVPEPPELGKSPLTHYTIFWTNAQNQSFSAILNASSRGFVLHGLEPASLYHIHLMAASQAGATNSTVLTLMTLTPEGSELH
Assay: SPA competition with 125I-G-CSF on G-CSFR-coated beads; grade defined in paragraph 137
Where no end group is shown, it is not given here.
IC50 for assorted binders

# example entries with known answers
{"binder": "H-DLWYLESKLEEAARRCNG-NH2 (also: homodimer via interchain disulfide between the Cys residues, also called Ex. No. 52) [Example 52 dimer of DLWYLESKLEEAARRCNG]", "endpoint result": "≤ 200 µM"}
{"binder": "H-DLWYLESKLEECARRCNG-NH2 (not fully specified (bridges); cysteine pairing not given here, also called Ex. No. 51) [Example 51 peptide DLWYLESKLEECARRCNG]", "endpoint result": "≤ 200 µM"}
{"binder": "LLDICELKLQECARRAN (not fully specified (bridges); cysteine pairing not given here, also called Ex. No. 57) [Example 57 peptide LLDICELKLQECARRAN]", "endpoint result": "≤ 200 µM"}

Prompt: Answer with the recorded IC50 for the binder listed here: GGGLLDICELKLQECARRCN (also called Ex. No. 54) [Example 54 peptide GGGLLDICELKLQECARRCN]
Completion: ≤ 0.5 µM
